Target: T1, HLA-A*0201 molecule on human T2 cells (human)
T1 construct: read out with anti-HLA-A2 antibody BB7.2-PE; also called HLA-A2
Experiment: T2 cells expressing HLA-A*0201, anti-HLA-A2-PE, FACS
Note to self: use true (1) only for Concentration of peptide that induces 20% of HLA-A2 expression readings below 10 µM; a reading exactly at 10 µM still gets false (0).

Q. I wonder whether FLDSLGFST [TYMS-H2] has Concentration of peptide that induces 20% of HLA-A2 expression below 10 µM. Can you tell?
A. true (1)

Q. AVFRVLIPV [EZH2-B2] ?
A. true (1)

Q. RVSSYLVPI (Fragment of human FOXM1) [FOXM1-H] ?
A. false (0)

Q. YTLGEFLYI [BIRC5-B2] ?
A. false (0)

Q. YLLSAALTI [CHI3L1B3] ?
A. true (1)

Q. FMVEDETVL (Fragment of human EZH2) [EZH2-H] ?
A. false (0)

Q. LTLGEFLKL [BIRC5-H] ?
A. false (0)

Q. SMEELLWFV [TYMS-B] ?
A. true (1)
